Biological target: PCSK9 (Homo sapiens, UniProt Q8NBP7)
Sequence (Q8NBP7 153-692): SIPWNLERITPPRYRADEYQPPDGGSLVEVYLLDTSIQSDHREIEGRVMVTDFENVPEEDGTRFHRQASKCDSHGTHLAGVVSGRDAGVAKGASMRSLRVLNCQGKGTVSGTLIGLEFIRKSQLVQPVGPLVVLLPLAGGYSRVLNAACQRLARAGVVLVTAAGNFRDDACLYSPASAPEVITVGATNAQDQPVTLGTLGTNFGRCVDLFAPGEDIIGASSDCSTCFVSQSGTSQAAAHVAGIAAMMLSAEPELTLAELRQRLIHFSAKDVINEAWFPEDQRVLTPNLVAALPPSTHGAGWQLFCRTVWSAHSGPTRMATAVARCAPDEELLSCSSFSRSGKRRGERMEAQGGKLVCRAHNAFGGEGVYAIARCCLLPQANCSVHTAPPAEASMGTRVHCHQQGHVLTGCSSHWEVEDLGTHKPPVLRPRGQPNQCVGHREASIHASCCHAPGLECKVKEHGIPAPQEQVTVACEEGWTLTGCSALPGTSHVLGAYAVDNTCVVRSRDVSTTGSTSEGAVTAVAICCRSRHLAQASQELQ
Assay: Differential scanning calorimetry (DSC) assay, direct binding / thermal stabilization of PCSK9
Conditions: Tm(with compound)−Tm(no compound); 2 μM PCSK9, 300 μM test compound
READOUT_NAME: ΔTm at 300 µM (°C)

// known answers, use as guide
COc1cc2c(cc1Oc1ccc3cnccc3c1)[C@@](C)(CC(=O)Nc1nccs1)NCC2 : 5.78
COC(=O)c1ccc(Oc2cc3c(cc2OCC2CCCCO2)CCN[C@]3(C)CC(=O)Nc2nccs2)cc1F (some centres unmarked) : 6.15
COC(=O)C1(c2ccc(-c3ccc(Oc4cc5c(cc4OC)CCN[C@]5(C)CC(=O)Nc4nccs4)cn3)cc2)CC1 : 3.31

P: COc1cc2c(cc1Oc1ccc(-c3c[nH]c4c(C(=O)O)cccc34)c(F)c1)[C@@](C)(CC(=O)Nc1nccs1)NCC2
Q: COc1cc2c(cc1Oc1cccc(F)c1)[C@@](C)(CC(=O)Nc1cccc3[nH]ccc13)NCC2
R: COC(=O)c1ccc(Oc2cc3c(cc2OCCOCCNC(=O)CCC2=[N+]4C(=Cc5c(C)cc(C)n5[B-]4(F)F)C=C2)CCN[C@]3(C)CC(=O)Nc2nccs2)cc1F
**Query** With regard to ΔTm at 300 µM, arrange the entries in ascending order, please. Answer format: list of labels, ordered as asked.
**Result** Q, R, P

These entries and their values trace back to patent US11008313B2.
